# System: CEM cells HIV-1 protection, formazan growth assay
# experiment_description: NCI AIDS Antiviral Assay

- compound: "CN(c1ccc(/C=C/c2ccccc2)cc1)P1(=O)NCCCO1 (stereo not given)"
  EC50: "> 41.7 µM"
- compound: "CCOC(=O)C(CS)NC(=O)CCCCCCCC(=O)NC(CS)C(=O)OCC (stereo not given)"
  EC50: "> 200 µM"
- compound: "Cc1nc2c(cc1C(=O)N/N=C/c1ccc([N+](=O)[O-])cc1)c(=O)n(C)c(=O)n2C"
  EC50: "> 200 µM"
- compound: "O=C(Cc1ccccc1)NC(C(=O)c1ccccc1)c1ccccc1 (stereo not given)"
  EC50: "> 79.4 µM"
- compound: "O=C(Nc1ccc(S(=O)(=O)/N=c2\\ncccn2C(=O)C(C(F)(F)F)C(F)(F)F)cc1)C(C(F)(F)F)C(F)(F)F"
  EC50: "> 200 µM"
- compound: "CC(C)(C)OC(=O)NCCCCCCC(=O)Cc1ccccc1"
  EC50: "> 200 µM"
- compound: "CCOC(=O)c1nc2ccc(C(F)(F)F)cc2nc1Nc1cc(OC)c(OC)c(OC)c1"
  EC50: "> 200 µM"
- compound: "Cc1c(Cl)cccc1NC(=O)C(=O)c1c(O)c2ccc(O)cc2oc1=O"
  EC50: "> 95.5 µM"
- compound: "N.N.N.N.N.[Cl-].[Co+3].c1ccc(-c2nn[n-]n2)cc1"
  EC50: "> 692 µM"
- compound: "CN(C(=O)Cc1ccccc1)n1cn[n+](CC(=O)OC(C)(C)C)c1"
  EC50: "> 200 µM"

* * *

# System: CEM cells HIV-1 protection, formazan growth assay
# experiment_description: NCI AIDS Antiviral Assay
# condition_context: measured here: growth of uninfected CEM cells
pIC50: −log10 of the molar value.

- compound: "N=C1OC(CN2CCN(c3ccccc3)CC2)CN1C(=S)Nc1ccccc1 (configuration not stated)"
  result_comparator: "="
  pIC50: 3.85
- compound: "Brc1ccccc1/C=C\\C1(c2ccccc2)OCCO1"
  result_comparator: "="
  pIC50: 5.36
- compound: "COc1cccc(C2C(C(=O)Nc3cc(=O)n(C)c(=O)n3C)=C(C)NC(C)=C2C(=O)Nc2cc(=O)n(C)c(=O)n2C)c1O"
  result_comparator: "="
  pIC50: 4.13
- compound: "CCOC(=N)CNC(=O)c1ccccc1"
  result_comparator: "<"
  pIC50: 3.70
- compound: "CCC(C)[C@@H](NCc1ccccc1)[C@H](OCc1ccccc1)[C@@H]1COC(C)(C)O1 (some centres not stated)"
  result_comparator: "="
  pIC50: 4.65
- compound: "S=C(N/N=C\\C=N/NC(=S)N1CCCCC1)N1CCCCC1"
  result_comparator: "="
  pIC50: 6.44
- compound: "N#CCCN(CCN(CCC#N)C(=O)Nc1ccccc1)C(=O)Nc1ccccc1"
  result_comparator: "<"
  pIC50: 3.70
- compound: "COc1cc2c(cc1OC)[C@H](C)N1CCc3cc(OC)c(OC)cc3[C@@H]1C2"
  result_comparator: "<"
  pIC50: 3.70
- compound: "C=C(C)[C@@H]1CC[C@]2(CNC(=O)CC(C)(C)CC(=O)O)CC[C@]3(C)[C@H](CC[C@@H]4[C@@]5(C)CC[C@H](NC(=O)CC(C)(C)CC(=O)O)C(C)(C)[C@@H]5CC[C@]43C)[C@@H]12"
  result_comparator: "="
  pIC50: 4.74
- compound: "Cc1ccc(S(=O)(=O)NCCCSCCSCCCN)cc1"
  result_comparator: "="
  pIC50: 4.38
- compound: "CCCNC(=O)Cn1c(C)cc2ccccc21"
  result_comparator: "<"
  pIC50: 3.70
- compound: "NCCCn1c(Cl)nc2ccccc21"
  result_comparator: "<"
  pIC50: 3.70
- compound: "COC1/C=C/OC2(C)Oc3c(C)c(O)c4c(O)c(c(/C=N/N5CCC(N6CCCCC6)CC5)c(O)c4c3C2=O)NC(=O)C(C)=C/C=C/C(C)C(O)C(C)C(O)C(C)C(OC(C)=O)C1C (configuration not stated)"
  result_comparator: "<"
  pIC50: 4.12
- compound: "Cc1nc(C)c(C(=O)Nc2cccc3c2C(=O)NC3=O)cc1C(=O)Nc1cccc2c1C(=O)NC2=O"
  result_comparator: "<"
  pIC50: 3.71
- compound: "Oc1[nH]c2ccccc2c1N=NC(=S)Nc1ccc(Cl)cc1"
  result_comparator: "="
  pIC50: 4.61
- compound: "COc1ccc(CCn2cnc3ccccc32)cc1"
  result_comparator: "<"
  pIC50: 3.70
- compound: "O=[N+]([O-])c1cccc([N+](=O)[O-])c1Cl"
  result_comparator: "="
  pIC50: 4.78
